target: 5-hydroxytryptamine receptor 2B (Homo sapiens, UniProt P41595); experiment: Agonist activity at human 5-HT2B receptor expressed in human Flp-In-293 cells assessed as induction of calcium flux incubated for 1 hr by Fluo-4 direct dye based FLIPR assay relative to 5-HT; format: functional, cell-based; conditions: filed as agonist
Sequence (P41595 whole entry): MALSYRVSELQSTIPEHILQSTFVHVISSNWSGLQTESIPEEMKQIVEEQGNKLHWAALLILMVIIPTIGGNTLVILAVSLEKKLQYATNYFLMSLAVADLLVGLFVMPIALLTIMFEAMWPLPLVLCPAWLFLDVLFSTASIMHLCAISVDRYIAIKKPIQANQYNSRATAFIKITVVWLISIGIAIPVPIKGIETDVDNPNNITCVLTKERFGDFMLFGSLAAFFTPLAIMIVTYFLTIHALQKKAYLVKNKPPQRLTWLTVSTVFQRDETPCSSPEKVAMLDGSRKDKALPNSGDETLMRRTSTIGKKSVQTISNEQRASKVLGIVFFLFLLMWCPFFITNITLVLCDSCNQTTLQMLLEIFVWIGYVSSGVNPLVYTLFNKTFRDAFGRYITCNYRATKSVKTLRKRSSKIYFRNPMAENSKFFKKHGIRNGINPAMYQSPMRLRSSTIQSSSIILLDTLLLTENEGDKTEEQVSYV
Assign criterion met whenever Emax does not fall below 60%; assign criterion not met whenever it does.

The examples below pair each entry with its known result.
1) C=C(C)COc1ccc2occc2c1[C@H]1C[C@@H]1CN = criterion not met
2) COc1ccc2c(c1[C@@H]1C[C@H]1CN)CCO2 = criterion not met
3) COc1ccc2c(c1[C@H]1C[C@@H]1CN)CCO2 = criterion met
4) CCOc1ccc2c(c1[C@H]1C[C@@H]1CN)CCO2 = criterion not met
5) NC[C@H]1C[C@@H]1c1c(OCCF)ccc2occc12 = criterion met
6) COc1ccc2occc2c1[C@@H]1C[C@H]1CN = criterion not met

Field: next compound
Decide: is the reported value of Emax for COc1ccc2occc2c1[C@H]1C[C@@H]1CN equal to or greater than 60%?
criterion met

###

pEC50, UniProt:P41595, per-entry values.
Answers are plain numbers, as −log10 of the molar value.

See these solved cases before continuing.
1. CCOc1ccc2c(c1[C@@H]1C[C@H]1CN)CCO2 = 6.11
2. COc1ccc2c(c1[C@@H]1C[C@H]1CN)CCO2 = 6.55
3. CCOc1ccc2oc(CC)cc2c1[C@H]1C[C@@H]1CN = 6.51
4. NC[C@H]1C[C@@H]1c1c(OCC2CC2)ccc2occc12 = 6.74
5. CC(C)Oc1ccc2occc2c1[C@@H]1C[C@H]1CN = 6.34
6. COc1ccc2occc2c1[C@@H]1C[C@H]1CN = 6.14
7. COc1ccc2c(c1[C@H]1C[C@@H]1CN)CCO2 = 7.11
8. CC(C)Oc1ccc2occc2c1[C@H]1C[C@@H]1CN = 6.76
9. C=C(C)COc1ccc2occc2c1[C@@H]1C[C@H]1CN = 6.13
10. NC[C@H]1C[C@@H]1c1c(OCCF)ccc2occc12 = 7.34

For the next question, use this compound.
Give the measured pEC50 of C=C(F)COc1ccc2occc2c1[C@@H]1C[C@H]1CN .
6.23

###

molecular target: 5-hydroxytryptamine receptor 2C (Homo sapiens) (UniProt P28335); assay: Agonist activity at human 5-HT2C INI receptor expressed in human Flp-In-293 cells assessed as induction of calcium flux incubated for 1 hr by Fluo-4 direct dye based FLIPR assay relative to 5-HT; format: functional, cell-based; details: filed as agonist
EXPERIMENTAL READOUT: Emax (%)
Numbers only, in %.

See these solved cases before continuing.
1. CCc1cc2c([C@H]3C[C@@H]3CN)c(OCCF)ccc2o1 = 93
2. C[C@H](N)Cn1ccc2cc(F)c(Cl)cc21 = 99
3. NC[C@H]1C[C@@H]1c1c(OCCF)ccc2c1CCO2 = 93
4. C=CCOc1ccc2occc2c1[C@H]1C[C@@H]1CN = 92

Give the measured Emax of C=CCOc1ccc2c(c1[C@H]1C[C@@H]1CN)CCO2 .
93

###

Molecular target: 5-hydroxytryptamine receptor 2C (Homo sapiens) (UniProt P28335)
Sequence (whole entry): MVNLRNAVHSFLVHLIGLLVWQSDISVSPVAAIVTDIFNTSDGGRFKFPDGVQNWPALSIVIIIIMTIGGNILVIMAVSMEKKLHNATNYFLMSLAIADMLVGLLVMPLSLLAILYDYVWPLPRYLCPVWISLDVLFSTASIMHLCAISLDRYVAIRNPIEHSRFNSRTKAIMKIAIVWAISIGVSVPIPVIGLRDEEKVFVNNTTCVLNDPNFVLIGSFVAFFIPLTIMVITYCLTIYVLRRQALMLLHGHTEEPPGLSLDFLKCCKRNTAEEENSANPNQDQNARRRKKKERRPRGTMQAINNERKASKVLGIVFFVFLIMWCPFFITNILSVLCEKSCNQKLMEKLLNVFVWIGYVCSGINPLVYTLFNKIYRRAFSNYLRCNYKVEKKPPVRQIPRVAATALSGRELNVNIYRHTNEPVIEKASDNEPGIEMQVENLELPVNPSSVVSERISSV
Assay: Agonist activity at human 5-HT2C receptor expressed in human Flp-In-293 cells assessed as induction of calcium flux incubated for 1 hr by Fluo-4 direct dye based FLIPR assay relative to 5-HT
Format: functional, cell-based
Details: filed as agonist
EXPERIMENTAL READOUT: Emax (%)
One number for each entry, in %.

See these solved cases before continuing.
1) C=C(F)COc1ccc2occc2c1[C@@H]1C[C@H]1CN = 93
2) CCCOc1ccc2occc2c1[C@@H]1C[C@H]1CN = 88
3) C=C(C)COc1ccc2occc2c1[C@H]1C[C@@H]1CN = 99

Return reported Emax values for all items listed beneath this line.
1. CCOc1ccc2c(c1[C@@H]1C[C@H]1CN)CCO2
2. C=CCOc1ccc2c(c1[C@@H]1C[C@H]1CN)CCO2
3. NC[C@H]1C[C@@H]1c1c(OCC2CC2)ccc2occc12
4. NC[C@@H]1C[C@H]1c1c(OCC2CC2)ccc2c1CCO2
5. CC(C)Oc1ccc2occc2c1[C@@H]1C[C@H]1CN
6. CCCOc1ccc2c(c1[C@@H]1C[C@H]1CN)CCO2
7. CC(C)Oc1ccc2occc2c1[C@H]1C[C@@H]1CN

1. 105
2. 90
3. 99
4. 65
5. 97
6. 94
7. 99

###

target: 5-hydroxytryptamine receptor 2C (Homo sapiens); experiment: Agonist activity at human 5-HT2C INI receptor expressed in human HEK293 cells assessed as induction of beta-arrestin-2 recruitment incubated for 20 hrs by Tango assay; assay type: cell-based; details: read-out: EC50
EXPERIMENTAL READOUT: pEC50
Numbers only, as −log10 of the molar value.

See these solved cases before continuing.
1) C=CCOc1ccc2occc2c1[C@H]1C[C@@H]1CN = 7.70
2) NC[C@H]1C[C@@H]1c1c(OCCF)ccc2occc12 = 7.60

Return reported pEC50 values for all items listed beneath this line.
1. C[C@H](N)Cn1ccc2cc(F)c(Cl)cc21
2. C=CCOc1ccc2oc(CC)cc2c1[C@H]1C[C@@H]1CN

1: 8.00; 2: 7.52

Return reported pEC50 values for all items listed beneath this line.
1. C=CCOc1ccc2c(c1[C@H]1C[C@@H]1CN)CCO2
2. CCc1cc2c([C@H]3C[C@@H]3CN)c(OCCF)ccc2o1
3. NC[C@H]1C[C@@H]1c1c(OCCF)ccc2c1CCO2

[6.57, 7.02, 6.50]

###

Target chain: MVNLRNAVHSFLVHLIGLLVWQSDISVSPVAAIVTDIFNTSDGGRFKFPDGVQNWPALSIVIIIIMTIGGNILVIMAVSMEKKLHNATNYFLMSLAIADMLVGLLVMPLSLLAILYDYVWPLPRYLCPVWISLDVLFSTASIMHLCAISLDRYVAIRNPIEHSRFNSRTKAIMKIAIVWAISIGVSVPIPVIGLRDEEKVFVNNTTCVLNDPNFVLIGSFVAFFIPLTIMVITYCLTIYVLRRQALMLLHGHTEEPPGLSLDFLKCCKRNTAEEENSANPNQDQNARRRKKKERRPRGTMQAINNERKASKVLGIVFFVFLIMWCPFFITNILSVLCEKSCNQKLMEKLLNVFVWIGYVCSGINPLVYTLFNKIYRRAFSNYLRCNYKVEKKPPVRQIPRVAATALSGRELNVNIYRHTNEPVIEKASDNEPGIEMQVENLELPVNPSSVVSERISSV
EXPERIMENTAL READOUT: EC50

See these solved cases before continuing.
1. CC(C)Oc1ccc2occc2c1[C@@H]1C[C@H]1CN = 21 nM
2. CCc1cc2c([C@H]3C[C@@H]3CN)c(OCC3CC3)ccc2o1 = 138 nM
3. NC[C@H]1C[C@@H]1c1c(OCC2CC2)ccc2occc12 = 12 nM
4. C=CCOc1ccc2occc2c1[C@H]1C[C@@H]1CN = 5.3 nM
5. C=C(F)COc1ccc2occc2c1[C@@H]1C[C@H]1CN = 99 nM

For the next question, use this compound.
Give the measured EC50 of CCOc1ccc2c(c1[C@@H]1C[C@H]1CN)CCO2 .
41 nM

###

pEC50, 5-hydroxytryptamine receptor 2B (Homo sapiens), per-entry values.
Answers are plain numbers, as −log10 of the molar value.

1. C=C(C)COc1ccc2occc2c1[C@H]1C[C@@H]1CN = 6.82
2. C=CCOc1ccc2occc2c1[C@H]1C[C@@H]1CN = 6.46

For the next question, use this molecule.
Give the measured pEC50 of CCc1cc2c([C@H]3C[C@@H]3CN)c(OC)ccc2o1 .
7.22

###

Assign log10 of EC50 to each entry below.
Molecular target: 5-hydroxytryptamine receptor 2C (Homo sapiens)
Sequence (P28335 whole entry): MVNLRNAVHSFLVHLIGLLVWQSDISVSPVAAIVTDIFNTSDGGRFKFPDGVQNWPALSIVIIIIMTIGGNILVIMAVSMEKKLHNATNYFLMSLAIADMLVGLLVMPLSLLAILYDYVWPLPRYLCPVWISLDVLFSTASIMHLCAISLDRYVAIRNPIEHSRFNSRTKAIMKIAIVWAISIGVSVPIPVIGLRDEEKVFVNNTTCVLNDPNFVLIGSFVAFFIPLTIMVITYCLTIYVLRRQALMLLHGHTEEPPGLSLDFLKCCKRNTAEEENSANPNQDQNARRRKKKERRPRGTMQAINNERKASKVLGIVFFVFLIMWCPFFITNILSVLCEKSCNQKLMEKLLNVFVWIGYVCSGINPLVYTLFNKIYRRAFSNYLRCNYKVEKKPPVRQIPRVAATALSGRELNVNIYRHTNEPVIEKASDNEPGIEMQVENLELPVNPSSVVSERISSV
Annotation: log10 of EC50, nM basis.

See these solved cases before continuing.
1) NC[C@@H]1C[C@H]1c1c(OCCF)ccc2occc12 = 1.52
2) C=CCOc1ccc2occc2c1[C@@H]1C[C@H]1CN = 1.75
3) COc1ccc2c(c1[C@@H]1C[C@H]1CN)CCO2 = 1.28
4) C=C(F)COc1ccc2occc2c1[C@H]1C[C@@H]1CN = 0.96

Return reported log10 of EC50 values for all items listed beneath this line.
1. C=CCOc1ccc2c(c1[C@H]1C[C@@H]1CN)CCO2
2. CCc1cc2c([C@H]3C[C@@H]3CN)c(OC)ccc2o1
3. C=C(C)COc1ccc2occc2c1[C@H]1C[C@@H]1CN
4. NC[C@@H]1C[C@H]1c1c(OCC2CC2)ccc2c1CCO2
5. CCCOc1ccc2oc(CC)cc2c1[C@H]1C[C@@H]1CN
6. COc1ccc2occc2c1[C@H]1C[C@@H]1CN

1. 1.04
2. 0.43
3. 1.40
4. 2.45
5. 1.91
6. 0.20

Return reported log10 of EC50 values for all items listed beneath this line.
1. CCOc1ccc2occc2c1[C@@H]1C[C@H]1CN
2. NC[C@@H]1C[C@H]1c1c(OCC2CC2)ccc2occc12
3. CCc1cc2c([C@@H]3C[C@H]3CN)c(OCC3CC3)ccc2o1
4. CCCOc1ccc2occc2c1[C@H]1C[C@@H]1CN

[1.41, 2.05, 2.65, 1.00]

Return reported log10 of EC50 values for all items listed beneath this line.
1. CC(C)Oc1ccc2occc2c1[C@H]1C[C@@H]1CN
2. CCCOc1ccc2c(c1[C@@H]1C[C@H]1CN)CCO2
3. CCCOc1ccc2occc2c1[C@@H]1C[C@H]1CN
4. CCc1cc2c([C@H]3C[C@@H]3CN)c(OCCF)ccc2o1
5. CCOc1ccc2oc(CC)cc2c1[C@@H]1C[C@H]1CN

0.79
1.98
1.94
1.04
2.06

Return reported log10 of EC50 values for all items listed beneath this line.
1. C=C(C)COc1ccc2occc2c1[C@@H]1C[C@H]1CN
2. NC[C@@H]1C[C@H]1c1c(OCCF)ccc2c1CCO2
3. CCOc1ccc2oc(CC)cc2c1[C@H]1C[C@@H]1CN
4. CCOc1ccc2c(c1[C@H]1C[C@@H]1CN)CCO2

[2.42, 2.48, 1.18, 0.43]
